Kindly state log10 of kon for each of the entries shown.
# system: T1, Recombinant Human CLL-1 Protein (his), Acro CLA-H5245 (human, UniProt Q5QGZ9 65-265)
# T1 construct: also called Analyte 1; not shown: his tag
# T1 sequence (looked up): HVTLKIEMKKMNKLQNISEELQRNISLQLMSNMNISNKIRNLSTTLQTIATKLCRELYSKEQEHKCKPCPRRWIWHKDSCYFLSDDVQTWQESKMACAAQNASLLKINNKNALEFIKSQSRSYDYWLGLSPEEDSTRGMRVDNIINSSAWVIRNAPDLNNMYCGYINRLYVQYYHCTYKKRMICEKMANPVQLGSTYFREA
# assay protocol: SPR, antibody captured on Protein A chip, recombinant human CLL-1 as analyte 3.125-50 nM, 1:1 model
Transform log10 | Measure kon | Unit M⁻¹ s⁻¹

Inquiry: Please report log10 of kon for the following binder: 23D7-scFv-hFc (Fc fusion, VL-(G4S)3-VH structure with C-terminal human IgG1 Fc; also called Anti-CLL1 scFv-hIgG1; not shown: human IgG1 Fc fused at the C-terminus) scFv: QIVLTQSPAIMSASPGEKVTMTCSASSSVSYIYWYQQKPGSSPGLLIYDTSNLASGVPVRFSGSGSGTSYSLTISRMEAEDAATYYCQQWSSFPPTFGAGTKLELKGGGGSGGGGSGGGGSQVQLQQPGSDLVRPGASVKLSCKASGYTFTRYWMHWVKQRPGHGLEWIGYIYPGSGTSNYDEKFKSKATLTVDTSSSTAYMQLSSLTSEDSAVYYCTREARYTMDYWGQGTSVTVSS
Reply text: 5.47

Inquiry: Please report log10 of kon for the following binder: 19C1-scFv-hFc (Fc fusion, VL-(G4S)3-VH structure with C-terminal human IgG1 Fc; also called Anti-CLL1 scFv-hIgG1; not shown: human IgG1 Fc fused at the C-terminus) scFv: QIVLTQSPAIMSASPGEKVTMTCSASSSVSYMYWYQQKPGSSPRLLIFDTSNLASGVPVRFSGSGSGTSYSLTISRMEAEDAATYYCQQWSSYPLTFGAGTKLELKGGGGSGGGGSGGGGSQVQLQQSGAELMKPGASVKISCKATGYTFSSYWIEWVKQRPGHGLEWIGEIFPGSGSIKYNEKFKGKATFTADTSSNTAYMQLSSLTSEDSAVHYCARGGTYNDYSLFDYWGQGTTLTVSS
Reply text: 5.95

Inquiry: Please report log10 of kon for the following binder: humanized antibody hz27H4H1L2 (antibody, V domains shown, Heavy chain variable region hz27H4H1 with light chain variable region hz27H4L2; also called h27H4H1L2 (complete antibody)) VH: EVQLVQSGAEVKKPGASVKVSCKASGYTFTGYHMHWVRQAPGQRLEWMGRINPYNGAASHNQKFKDRVTITRDTSASTAYMELSSLRSEDTAVYYCARGWDYDGGYYAMDYWGQGTLVTVSS VL: DIVMTQSPLSLPVTPGEPASISCKSSQSLLYSDNQKNYLAWYLQKPGQSPQLLIYWASTRESGVPDRFSGSGSGTDFTLKISRVEAEDVGVYYCQQYYTYPYTFGQGTKLEIK
Reply text: 6.70

Inquiry: Please report log10 of kon for the following binder: 27H4-scFv-hFc (Fc fusion, VL-(G4S)3-VH structure with C-terminal human IgG1 Fc; also called Anti-CLL1 scFv-hIgG1; not shown: human IgG1 Fc fused at the C-terminus) scFv: DIVMSQSPSSLAVSVGEKVTMSCKSSQSLLYSDNQKNYLAWYQQKPGQSPKLLIYWASTRESGVPDRFTGSGSGTDFTLTISSVKAEDLAVYYCQQYYTYPYTFGGGTKLEIKGGGGSGGGGSGGGGSEVQLQQSGPELVKPGASVKISCKASGYSFTGYHMHWVKQSHVKSLEWIGRINPYNGAASHNQKFKDKATLTVDKSSSTAYMELHSLTSEDSAVYYCARGWDYDGGYYAMDYWGQGTSVTVSS
Reply text: 6.61

Inquiry: Please report log10 of kon for the following binder: humanized antibody hz27H4H1L1 (antibody, V domains shown, Heavy chain variable region hz27H4H1 with light chain variable region hz27H4L1; also called h27H4H1L1 (complete antibody)) VH: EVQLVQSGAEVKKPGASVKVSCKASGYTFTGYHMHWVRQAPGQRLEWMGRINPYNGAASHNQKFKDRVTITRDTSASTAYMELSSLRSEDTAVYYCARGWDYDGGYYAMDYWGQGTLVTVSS VL: DIQMTQSPSSLSASVGDRVTITCKSSQSLLYSDNQKNYLAWYQQKPGKAPKLLIYWASTRESGVPSRFSGSGSGTDFTLTISSLQPEDFATYYCQQYYTYPYTFGQGTKLEIK
Reply text: 6.69
